All figures here come from the supplement of paper PMC11061612.

Reported Bliss excess values follow for various compounds
Test system: SR (Other Blood Carcinomas)
EXPERIMENT_NOTES: Bliss excess, mean over the matrix (fraction); higher = more synergy
MEASURED_QUANTITY: Bliss excess

O=C(c1cc(Cc2n[nH]c(=O)c3ccccc23)ccc1F)N1CCN(C(=O)C2CC2)CC1 [Olaparib] + CC1(C)CCC(CN2CCN(c3ccc(C(=O)NS(=O)(=O)c4ccc(NCC5CCOCC5)c([N+](=O)[O-])c4)c(Oc4cnc5[nH]ccc5c4)c3)CC2)=C(c2ccc(Cl)cc2)C1 [Venetoclax] (first compound max 10 µM, 7x7, partner max 1 µM) :: 0.0961
CCc1c2c(nc3ccc(O)cc13)-c1cc3c(c(=O)n1C2)COC(=O)[C@]3(O)CC [SN-38] + O=C(c1cc(Cc2n[nH]c(=O)c3ccccc23)ccc1F)N1CCN(C(=O)C2CC2)CC1 [Olaparib] (first compound max 0.3 µM, 7x7, partner max 10 µM) :: 0.0614

---

System: MEL-JUSO (Melanoma)
EXPERIMENT_NOTES: combination Emax (second highest fraction inhibited in the dose matrix, 72 h); higher = more inhibition; extreme values may be limits of the assay
Reported combination Emax values follow for various molecules
MEASURED_QUANTITY: combination Emax

C[C@@H]1COCCN1c1cc(C2([S@](C)(=N)=O)CC2)nc(-c2ccnc3[nH]ccc23)n1 [AZD6738] + O=C(c1cc(Cc2n[nH]c(=O)c3ccccc23)ccc1F)N1CCN(C(=O)C2CC2)CC1 [Olaparib] (first compound max 10 µM, 7x7, partner max 10 µM) :: 0.418
NC1(C(=O)N[C@@H](CCO)c2ccc(Cl)cc2)CCN(c2ncnc3[nH]ccc23)CC1 [Capivasertib] + Cn1cnc2c(F)c(Nc3ccc(Br)cc3Cl)c(C(=O)NOCCO)cc21 [Selumetinib] (first compound max 10 µM, 7x7, partner max 10 µM) :: 0.545
COc1nnc2ccc(N3CCC(c4ccc(OCCN5CCN(C)C(=O)[C@H]5C)cc4)CC3)nn12 [AZD5153] + CN(CC[C@H](CSC1=CC=CC=C1)NC2=C(C=C(C=C2)S(=O)(=O)NC(=O)C3=CC=C(C=C3)N4CCC(CC4)[C@H](C5=CC=CC=C5C6=CC=C(C=C6)Cl)O)S(=O)(=O)C(F)(F)F)CCO [AZD4320] (first compound max 1 µM, 7x7, partner max 1 µM) :: 0.3

---

Reported Bliss excess values follow for various compounds
Tested on: MOLT-16 (T-Lymphoblastic Leukemia)
EXPERIMENT_NOTES: Bliss excess, mean over the matrix (fraction); higher = more synergy
MEASURED_QUANTITY: Bliss excess

Cc1c2c(nn1C)CSCc1cc(n(C)n1)CSc1cc(c3ccccc3c1)OCCCc1c(C(=O)O)n(C)c3c-2c(Cl)ccc13 [AZD5991] + C[C@@H]1COCCN1C2=NC(=NC(=C2)C3(CC3)[S@](=N)(=O)C)C4=C5C=CNC5=NC=C4 [AZD6738] (first compound max 1 µM, 7x7, partner max 10 µM) :: 0.0043
CC(=O)c1c(C)c2cnc(Nc3ccc(N4CCNCC4)cn3)nc2n(C2CCCC2)c1=O [Palbociclib] + Cc1c2c(nn1C)CSCc1cc(n(C)n1)CSc1cc(c3ccccc3c1)OCCCc1c(C(=O)O)n(C)c3c-2c(Cl)ccc13 [AZD5991] (first compound max 10 µM, 7x7, partner max 1 µM) :: -0.0427
Cc1c2c(nn1C)CSCc1cc(n(C)n1)CSc1cc(c3ccccc3c1)OCCCc1c(C(=O)O)n(C)c3c-2c(Cl)ccc13 [AZD5991] + CN(C)CCCOc1ccc(-c2ccc3ncc4c(c3c2)n(C2CCOCC2)c(=O)n4C)cn1 [AZD0156] (first compound max 1 µM, 7x7, partner max 1 µM) :: -0.0302
COc1cccc(OCCCN)c1-c1cc(Nc2cnc(C#N)cn2)n[nH]1 [Prexasertib] + Cc1cc2ncnn2cc1Nc1ncc2c(n1)n(C1CCOCC1)c(=O)n2C [AZD7648] (first compound max 1 µM, 7x7, partner max 10 µM) :: 0.0121
Cc1c2c(nn1C)CSCc1cc(n(C)n1)CSc1cc(c3ccccc3c1)OCCCc1c(C(=O)O)n(C)c3c-2c(Cl)ccc13 [AZD5991] + CCN(CCO)CCCOc1ccc2c(Nc3cc(CC(=O)Nc4cccc(F)c4)[nH]n3)ncnc2c1 [AZD2811] (first compound max 1 µM, 7x7, partner max 1 µM) :: -0.0114
CC1(C)CCC(CN2CCN(c3ccc(C(=O)NS(=O)(=O)c4ccc(NCC5CCOCC5)c([N+](=O)[O-])c4)c(Oc4cnc5[nH]ccc5c4)c3)CC2)=C(c2ccc(Cl)cc2)C1 [Venetoclax] + CN(C)CCCOc1ccc(-c2ccc3ncc4c(c3c2)n(C2CCOCC2)c(=O)n4C)cn1 [AZD0156] (first compound max 1 µM, 7x7, partner max 1 µM) :: 0.0462
NC1(C(=O)N[C@@H](CCO)c2ccc(Cl)cc2)CCN(c2ncnc3[nH]ccc23)CC1 [Capivasertib] + Cn1cnc2c(F)c(Nc3ccc(Br)cc3Cl)c(C(=O)NOCCO)cc21 [Selumetinib] (first compound max 10 µM, 7x7, partner max 10 µM) :: 0.0683
COc1cccc(OCCCN)c1-c1cc(Nc2cnc(C#N)cn2)n[nH]1 [Prexasertib] + CN(C)CCCOc1ccc(-c2ccc3ncc4c(c3c2)n(C2CCOCC2)c(=O)n4C)cn1 [AZD0156] (first compound max 1 µM, 7x7, partner max 1 µM) :: 0.05
Cc1c2c(nn1C)CSCc1cc(n(C)n1)CSc1cc(c3ccccc3c1)OCCCc1c(C(=O)O)n(C)c3c-2c(Cl)ccc13 [AZD5991] + Cc1cc2ncnn2cc1Nc1ncc2c(n1)n(C1CCOCC1)c(=O)n2C [AZD7648] (first compound max 1 µM, 7x7, partner max 10 µM) :: -0.023
C[C@@H](c1ccc2nccn2c1)n1nnc2ncc(-c3cnn(C)c3)nc21 [Savolitinib] + CN(CC[C@H](CSC1=CC=CC=C1)NC2=C(C=C(C=C2)S(=O)(=O)NC(=O)C3=CC=C(C=C3)N4CCC(CC4)[C@H](C5=CC=CC=C5C6=CC=C(C=C6)Cl)O)S(=O)(=O)C(F)(F)F)CCO [AZD4320] (first compound max 1 µM, 7x7, partner max 1 µM) :: -0.0222
Cc1c2c(nn1C)CSCc1cc(n(C)n1)CSc1cc(c3ccccc3c1)OCCCc1c(C(=O)O)n(C)c3c-2c(Cl)ccc13 [AZD5991] + CC1(C)CCC(CN2CCN(c3ccc(C(=O)NS(=O)(=O)c4ccc(NCC5CCOCC5)c([N+](=O)[O-])c4)c(Oc4cnc5[nH]ccc5c4)c3)CC2)=C(c2ccc(Cl)cc2)C1 [Venetoclax] (first compound max 1 µM, 7x7, partner max 1 µM) :: 0.063
Cc1nc(Nc2ncc(C(=O)Nc3c(C)cccc3Cl)s2)cc(N2CCN(CCO)CC2)n1 [Dasatinib] + CC(=O)Nc1cccc(-n2c(=O)n(C3CC3)c(=O)c3c(Nc4ccc(I)cc4F)n(C)c(=O)c(C)c32)c1 [Trametinib] (first compound max 2 µM, 7x7, partner max 1 µM) :: -0.0184
C=CCn1c(=O)c2cnc(Nc3ccc(N4CCN(C)CC4)cc3)nc2n1-c1cccc(C(C)(C)O)n1 [AZD1775] + C1CN(CCC1(C(=O)N[C@@H](CCO)C2=CC=C(C=C2)Cl)N)C3=NC=NC4=C3C=CN4 [Capivasertib] (first compound max 3 µM, partner max 3 µM) :: 0.0568
C[C@@H](c1ccc2nccn2c1)n1nnc2ncc(-c3cnn(C)c3)nc21 [Savolitinib] + Cc1c2c(nn1C)CSCc1cc(n(C)n1)CSc1cc(c3ccccc3c1)OCCCc1c(C(=O)O)n(C)c3c-2c(Cl)ccc13 [AZD5991] (first compound max 1 µM, 7x7, partner max 1 µM) :: -0.0289
